Each recorded value in this set is attributed to patent US9688764B2.

molecular target: T1, hPRLR.mmh (soluble monomeric human PRLR) (Homo sapiens, UniProt P16471); experiment: Surface plasmon resonance (Biacore T200), mAb-capture format; format: binding; conditions: 25° C., antibody-capture format, analyte hPRLR.mmh
T1 construct: soluble monomeric (hPRLR.mmh); mmh (myc-myc-hexahistidine)
T1 sequence (P16471 with tags, fused parts or gaps): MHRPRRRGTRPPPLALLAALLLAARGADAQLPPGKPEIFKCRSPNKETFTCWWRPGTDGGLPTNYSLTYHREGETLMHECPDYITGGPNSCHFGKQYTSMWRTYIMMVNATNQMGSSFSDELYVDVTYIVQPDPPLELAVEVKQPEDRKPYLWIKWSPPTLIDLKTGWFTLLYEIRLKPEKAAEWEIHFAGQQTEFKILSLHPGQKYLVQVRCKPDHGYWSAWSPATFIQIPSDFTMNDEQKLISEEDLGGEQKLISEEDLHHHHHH
Property: Kd (nM)
Quick note: give the figure in nM, leave out the unit.

Field: example entries. Status: answers known.
Molecule | Kd [nM]
H1H6953N: human IgG1 Fc form of H1M6953N; anti-PRLR; HCVR/LCVR SEQ ID NOs 274/282 (antibody, V domains shown, human IgG1 Fc) VH: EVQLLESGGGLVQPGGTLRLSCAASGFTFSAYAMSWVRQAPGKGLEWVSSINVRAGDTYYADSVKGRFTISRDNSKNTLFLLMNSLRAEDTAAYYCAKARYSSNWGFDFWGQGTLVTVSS VL: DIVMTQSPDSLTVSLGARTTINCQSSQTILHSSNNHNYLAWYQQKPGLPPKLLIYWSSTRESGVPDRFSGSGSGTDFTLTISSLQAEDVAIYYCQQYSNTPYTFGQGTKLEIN | 0.268
H1H6782P: anti-PRLR antibody, human IgG1 Fc; HCVR/LCVR SEQ ID NOs 66/74; non-blocking (antibody, V domains shown, human IgG1 Fc) VH: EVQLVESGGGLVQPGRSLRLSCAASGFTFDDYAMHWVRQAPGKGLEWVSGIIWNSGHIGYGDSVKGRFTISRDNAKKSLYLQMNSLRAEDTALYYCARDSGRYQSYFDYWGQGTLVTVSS VL: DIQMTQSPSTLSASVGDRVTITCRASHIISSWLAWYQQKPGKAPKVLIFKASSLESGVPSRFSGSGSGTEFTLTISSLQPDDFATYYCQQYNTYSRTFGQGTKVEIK | 0.685
H1H6966N: human IgG1 Fc form of H2M6966N; anti-PRLR; HCVR/LCVR SEQ ID NOs 338/346 (antibody, V domains shown, human IgG1 Fc) VH: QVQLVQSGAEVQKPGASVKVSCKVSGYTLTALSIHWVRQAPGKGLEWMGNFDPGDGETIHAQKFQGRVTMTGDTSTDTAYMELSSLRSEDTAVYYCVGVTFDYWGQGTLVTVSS VL: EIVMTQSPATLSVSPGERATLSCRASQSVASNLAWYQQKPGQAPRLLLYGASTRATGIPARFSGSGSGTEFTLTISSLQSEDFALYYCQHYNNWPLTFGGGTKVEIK | 0.302

Please examine the following record next.
# input For the molecule shown here, H1H6967N: human IgG1 Fc form of H2M6967N; anti-PRLR; HCVR/LCVR SEQ ID NOs 354/362 (antibody, V domains shown, human IgG1 Fc) VH: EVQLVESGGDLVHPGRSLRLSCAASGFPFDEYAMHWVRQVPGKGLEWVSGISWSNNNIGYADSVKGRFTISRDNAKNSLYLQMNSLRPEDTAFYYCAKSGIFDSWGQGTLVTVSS VL: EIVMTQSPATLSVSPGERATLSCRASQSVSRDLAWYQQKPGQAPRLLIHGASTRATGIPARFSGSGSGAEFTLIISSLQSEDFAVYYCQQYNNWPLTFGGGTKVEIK , give the reported Kd.
# output 1.35
